- targetDesc: human CAIX on CHO cells (CHO-hCAIX) (human, UniProt Q16790 38-459)
- assayComment: flow cytometry on CHO-hCAIX cells
Listed below: EC50 values for each entry.
Give your result in nM as a bare value.

See these solved cases before continuing.
Hu-H-YE-23-D2 (Fc fusion, T0013 prints the label as Hu-H-YB-23-D2; also called Hu-H-YB-23-D2; humanized recombinant antibody from H-YE-23; not shown: human IgG1 Fc segment) QVQLVESGGGLVQPGGSLRLSCSASGNSANIFSFASVAWYRQAPGKGLELVSVITSAGGTKYSDSVKGRFTISRDNSKNTLYLQMNSLRAEDTAVYYCNVDYLQDYWGQGTLVTVSS; 8.71
H-YE-23 (Fc fusion, also called CAIX nanobody H-YE-23; WYE-23; not shown: human IgG1 Fc segment) QVQLQESGGGLVQPGGSLRLSCAASGNSANIFSFASVAWYRQAPGKQRELVAVITSAGGTKYSDSVKGRFTISRDNAKNTILLQMNSLKPEDTAVYYCNVDYLQDYWGQGTQVTVSS; 3.11
Hu-H-YE-32-D5 (Fc fusion, T0013 prints the label as Hu-H-YB-32-D5; also called Hu-H-YB-32-D5; humanized antibody from H-YE-32; not shown: human IgG1 Fc segment) QVQLVESGGGLVQPGGSLRLSCSASGGARNIFSFAAMHWYRQAPGKGLELVAVITSAGGTYYADSVKGRFTISRDNSKKTLYLQMNSLRAEDTAVYYCNADYYQDYWGQGTQVTVSS; 2.33

Exercise: Consider the binder shown here: Hu-H-YE-05-D4 (Fc fusion, also called humanized recombinant antibody from H-YE-05; not shown: human IgG1 Fc segment) EVQLLESGGGLVQPGGSRRLSCAASGNSVNIFSFAAVAWYRQAPGKQRELVAVITTTGGTKYSDSVKGRFTISRDSSKNTVYLQMNSLRAEDTAVYYCNADYLQDYWGQGTQVTVSS What is its recorded EC50?
Key: 5.07

Exercise: Consider the binder shown here: Hu-H-YE-05-D3 (Fc fusion, also called humanized recombinant antibody from H-YE-05; not shown: human IgG1 Fc segment) EVQLLESGGGLVQPGGSLRLSCAASGNSVNIFSFAAMSWYRQAPGKGLELVAVITTTGGTKYSDSVKGRFTISRDNSKNTLYLQMNSLRAEDTAVYYCNADYLQDYWGQGTQVTVSS What is its recorded EC50?
Key: 4.46

Exercise: Consider the binder shown here: H-YE-05 (Fc fusion, also called CAIX nanobody H-YE-05; not shown: human IgG1 Fc segment) QVQLQESGGGLVQPGGSRRLSCAASGNSVNIFSFAAVAWYRQAPGKQRELVAVITTTGGTKYSDSVKGRFTISRDSAKNTVLLQMNSLKPEDTAVYYCNADYLQDYWGQGTQVTVSS What is its recorded EC50?
Key: 4.55
